Origin of the recorded values: ChEMBL document CHEMBL4020815

- tested system: Bifunctional purine biosynthesis protein ATIC (Homo sapiens, UniProt P31939)
- Sequence (P31939 whole entry): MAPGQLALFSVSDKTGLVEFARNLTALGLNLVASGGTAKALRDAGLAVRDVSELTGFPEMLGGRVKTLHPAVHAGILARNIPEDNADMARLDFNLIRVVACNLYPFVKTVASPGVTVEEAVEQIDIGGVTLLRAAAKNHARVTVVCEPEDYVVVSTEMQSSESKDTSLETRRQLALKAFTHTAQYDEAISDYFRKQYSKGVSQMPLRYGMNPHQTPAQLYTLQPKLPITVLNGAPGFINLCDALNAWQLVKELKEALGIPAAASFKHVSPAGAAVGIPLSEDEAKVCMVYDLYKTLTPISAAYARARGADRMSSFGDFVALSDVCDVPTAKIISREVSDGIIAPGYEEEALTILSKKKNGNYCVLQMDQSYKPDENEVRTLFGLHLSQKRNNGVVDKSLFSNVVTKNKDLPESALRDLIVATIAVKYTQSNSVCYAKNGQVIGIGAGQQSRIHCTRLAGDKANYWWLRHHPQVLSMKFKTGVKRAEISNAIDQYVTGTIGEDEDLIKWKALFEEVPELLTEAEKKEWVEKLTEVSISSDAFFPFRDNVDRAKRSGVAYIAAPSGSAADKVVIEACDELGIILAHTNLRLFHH
- test details: Inhibition of human full length N-terminal His-tagged AICARFT expressed in Escherichia coli BL21 (DE3) using ZMP/10-formyltetrahydrofolate as substrate assessed as decrease in IMP levels after 1 hr by mass spectrometric method
readout type: IC50

As a guide, the following entries are already answered.
O=c1[nH]ccc2cc(F)c(NS(=O)(=O)c3ccc(N4CCC[C@H](O)C4)s3)cc12 | 18 nM
Nc1nc2ccc(NS(=O)(=O)c3ccc(C(=O)N[C@@H](CCC(=O)O)C(=O)O)cc3)cc2c(=O)[nH]1 | 1000 to 5000 nM
O=c1[nH]ccc2cc(F)c(NS(=O)(=O)c3ccc(N4C[C@@H](O)C(F)(F)C4)s3)cc12 | 12 nM

Here's the next entry for you.
INPUT: I would be grateful if you could share the reported IC50 for O=c1[nH]ccc2cc(F)c(NS(=O)(=O)c3ccc(N4CCC[C@@H](O)C4)s3)cc12 .
OUTPUT: 26 nM

###

Item-by-item account of EC50
- tested system: Bifunctional purine biosynthesis protein ATIC (Homo sapiens)
- test details: Inhibition of AICARFT in human NCI-H460 cells assessed as increase in ZMP levels using low folate media after 16 hrs by LC-MS method
- Type: cell-based
Answer with a number only, understood to be in nM.

Reference set, count: 2
O=c1ccc(-c2ccc(S(=O)(=O)Nc3cc4c(=O)[nH]ccc4cc3F)s2)c[nH]1 | 62
CCC1(C)CC(c2ccc(S(=O)(=O)Nc3cc4c(=O)[nH]ccc4cc3F)s2)=CNC1=O (stereo not drawn) | 4

INPUT: What does the data say about its EC50? Entry: N#Cc1ccc(S(=O)(=O)Nc2ccc3cc[nH]c(=O)c3c2)cc1
OUTPUT: 567

###

- test details: AUC in CD-1 mouse at 10 mg/kg, po by LC-MS/MS method
- Type: ADME, organism-based
- details: in vivo
readout type: AUC (ng·h/mL)
Express it in ng·h/mL; write the number only.

N#Cc1ccc(S(=O)(=O)Nc2cc3c(=O)[nH]ccc3cc2F)cc1 | 55800

INPUT: Would you kindly share the measured AUC for N#Cc1ccc(S(=O)(=O)Nc2ccc3cc[nH]c(=O)c3c2)cc1 ?
OUTPUT: 16100

###

- tested system: CYP2C9 (Homo sapiens)
- Sequence (P11712 whole entry): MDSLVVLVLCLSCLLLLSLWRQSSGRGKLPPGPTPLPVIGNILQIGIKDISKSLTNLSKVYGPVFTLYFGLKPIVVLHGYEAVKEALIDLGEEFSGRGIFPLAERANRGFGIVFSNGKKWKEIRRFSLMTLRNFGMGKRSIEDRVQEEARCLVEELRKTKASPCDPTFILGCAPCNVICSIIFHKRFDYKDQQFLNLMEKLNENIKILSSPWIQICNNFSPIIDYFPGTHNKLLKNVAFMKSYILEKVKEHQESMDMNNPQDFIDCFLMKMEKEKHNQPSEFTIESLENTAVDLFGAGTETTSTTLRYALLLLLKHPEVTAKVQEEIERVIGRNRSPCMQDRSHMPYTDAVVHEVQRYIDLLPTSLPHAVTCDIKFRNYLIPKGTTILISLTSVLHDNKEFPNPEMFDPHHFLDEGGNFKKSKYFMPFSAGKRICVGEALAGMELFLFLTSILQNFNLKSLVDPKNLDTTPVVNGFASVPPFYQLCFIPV
- test details: Inhibition of human CYP2C9 at 10 uM relative to control
- Format: ADME
readout type: inhibition at 10 µM

INPUT: Given the entry O=c1[nH]ccc2cc(F)c(NS(=O)(=O)c3ccc(N4CC[C@@H](O)C4)s3)cc12 , report its measured inhibition at 10 µM.
OUTPUT: < 10%

###

- test details: Permeability across apical to basolateral side in MDCK cells at 20 uM
- Assay type: ADME, cell-based, Canis lupus familiaris
- details: dog
The threshold is inclusive: permeability of exactly 0.2% counts as y; values below receive n.

CC1(C)CC(c2ccc(S(=O)(=O)Nc3cc4c(=O)[nH]ccc4cc3F)s2)=CNC1=O | n
O=c1[nH]ccc2cc(F)c(NS(=O)(=O)c3ccc(N4CCC[C@@H](O)C4)s3)cc12 | n
O=c1[nH]ccc2cc(F)c(NS(=O)(=O)c3ccc(N4CC[C@H](O)C4)s3)cc12 | y
O=c1[nH]ccc2cc(F)c(NS(=O)(=O)c3ccc(N4C[C@H](O)C(F)(F)C4)s3)cc12 | y
O=c1[nH]ccc2cc(F)c(NS(=O)(=O)c3ccc(N4C[C@@H](O)[C@@H](F)C4)s3)cc12 (stereo in doubt) | n
O=c1[nH]ccc2cc(F)c(NS(=O)(=O)c3ccc(N4CCC[C@H](O)C4)s3)cc12 | n

# ---- query molecule ----
INPUT: Would you say O=c1[nH]ccc2cc(F)c(NS(=O)(=O)c3ccc(N4C[C@@H](O)C(F)(F)C4)s3)cc12 shows permeability at minimum 0.2%?
OUTPUT: y
